B1: NELF-E aptamer (parent)
chain: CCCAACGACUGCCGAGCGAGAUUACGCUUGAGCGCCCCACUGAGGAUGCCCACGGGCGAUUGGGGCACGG

- Variants of: B1
- test protocol: HiTS-RAP
- stated conditions: with NELF-E (Drosophila)
pKd: −log10 of the molar value.
Class y: pKd at least 8. Class n: pKd below 8.

A selection of reference data follows.
CCCAACGACUGCCGAGCGGGAUUACGCUUGAGCGCCCCACUGAGGAUGCCCUCGGGCGAUUGGGGCACGG [A19G A52U]
n
CCCAACGACGGUCGAGCGAGAUUACGCUUGAGCGCCCCACUGAGGAUGCCCACGGGCGAUUGGGGCACGG [U10G C12U]
y

Now turn to the next variant.
Check the entry CCCAACGUCUGCCGAGCGAGAUUACGUUUGAGCGCCCCACUGAGGAUGCCCACGGGCGAUUGGGGCACGG [A8U C27U] : does pKd equal or exceed 8?
y
